Listed here are compounds together with their documented MEAN CORPUSCULAR HEMOGLOBIN CONCENTRATION.
species on record: Rattus norvegicus; test: DrugMatrix - Regimen: Daily Repeat; type: toxicity, organism-based, Sprague-Dawley; design: regimen Daily Repeat, gender Male, age 6-8 weeks; details: in vivo, po, 100 mg/kg, 72 h, tissue Blood, route oral GAVAGE, dose level Low, time 3 day, vehicle .5 % CMC
TEST_READOUT: MEAN CORPUSCULAR HEMOGLOBIN CONCENTRATION (G/DL)

- COMPOUND: "Nc1nc2c(c(=O)[nH]1)N(C=O)C(CNc1ccc(C(=O)N[C@@H](CCC(=O)O)C(=O)O)cc1)CN2 (some centres undefined)"
  OBSERVED_MEASUREMENT: 39.63
- COMPOUND: "CC=Cc1ccc(O)c(OC)c1"
  OBSERVED_MEASUREMENT: 37.77
- COMPOUND: "CC[C@]1(O)CC[C@H]2[C@@H]3CCC4=CCCC[C@@H]4[C@H]3CC[C@@]21C"
  OBSERVED_MEASUREMENT: 32.2
- COMPOUND: "C#C[C@]1(O)CC[C@H]2[C@@H]3CCC4=Cc5oncc5C[C@]4(C)[C@H]3CC[C@@]21C"
  OBSERVED_MEASUREMENT: 39.3
